- system: T1, human CD3e/d (human, UniProt P07766 23-126; P04234 22-105)
- T1 construct: Bought soluble protein; also called hCD3e/d; human CD3/ed (Sino CT038-H2508H)
- T1 sequence (P07766 23-126, chain 1 of 2): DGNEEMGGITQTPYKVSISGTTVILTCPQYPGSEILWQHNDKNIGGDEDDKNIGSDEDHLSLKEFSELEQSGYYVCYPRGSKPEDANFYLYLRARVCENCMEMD
- T1 sequence (P04234 22-105, chain 2 of 2): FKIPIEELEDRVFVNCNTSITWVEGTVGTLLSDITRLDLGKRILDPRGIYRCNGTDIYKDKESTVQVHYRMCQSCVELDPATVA
- assay.info: SPR (Carterra LSA), mAb on chip
pKd: −log10 of the molar value.
observed.property: pKd

>>> value_observed("mAb 165 (antibody, V domains shown, VH and VL only) VH: EVQLVESGGGLVKTGGSLRLSCVASGFSFKKAWMNWVRQAPGKGLEWVGRIKRNTDGGTADYAAPVKGRFTLSRDDSKRTLYLQMNSLKTEDTAVYYCTTLDSSSRYVGYYYMDVWGKGTTVTVSS VL: DIQMTQSPSSVSASVGDRVIITCRASQDINNWLAWYQQKPGKVPKLLIYTASSLQSGVPSRFSGSGSGTDFTLTIGSLQPEDFATYYCQQAHSLPITFGQGTRLEIK")
7.39
>>> value_observed("mAb 178 (antibody, V domains shown, VH and VL only) VH: EVQLVESGGGLVQPGRSLRLSCAASGFTFDDYTMHWVRQAPGKGLEWVSDISWNSGTIGYADSVKGRFTISRDNAKNSLYLQMNSLRAEDTALYYCVKDSSGYGHYYKYYMDVWGKGTTVTVSS VL: DIQMTQSPSSLSASVGDRVTITCRASQSISNYLNWYQQKAGKVPKVLIYGSSSLQSGVPSRFSGSGSGTDFTLTISSLQPEDFASYYCQQTYSSPLTFGGGTKVDFK")
9.00
>>> value_observed("mAb 172 (antibody, V domains shown, VH and VL only) VH: EVQLVESGGGLVQPGRSLRLSCTTSGFTFDDYTMHWVRQVPGKGLEWVSDISWNSGSVGYADSVKGRFTISRDNAKNSLYLQMNSLRAEDTALYYCVKDSSGYGHYFHYYMDVWGKGTTVTVSS VL: DIQMTQSPSSLSASVGDRVTITCRASQSISNYLNWYQVKPGKAPKVLIYAASSLQSGVPSRFSGSGSGTDFTLTISSLQPEDFVSYYCHQSYNAPITFGQGTRLESK")
8.32
